This collection of values is drawn from patent US20190241669A1.

measured.target: Human BCMA (human) (UniProt Q02223)
assay.name: SPR, IgG on chip, huBCMA analyte
readout.name: kon (M⁻¹ s⁻¹)
Write it as a number; the unit M⁻¹ s⁻¹ goes unstated.

Please look at this binder and report its kon: C01_Rd4_6nM_C24 (antibody, V domains shown, IgG) VH: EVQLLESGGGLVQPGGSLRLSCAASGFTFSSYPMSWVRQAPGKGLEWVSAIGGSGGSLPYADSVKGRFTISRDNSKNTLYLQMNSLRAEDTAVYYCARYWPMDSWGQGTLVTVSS VL: EIVLTQSPGTLSLSPGERATLSCRASQSVSPEYLAWYQQKPGQAPRLLIYDASSRAPGIPDRFSGSGSGTDFTLTISRLEPEDFAVYYCQQYSVWPLTFGQGTKVEIK
7.47e+06

Look up kon of COMBO_Rd4_6nM_C07 (antibody, V domains shown, IgG) VH: EVQLLESGGGLVQPGGSLRLSCAASGFTFSSYPMSWVRQAPGKGLEWVSAIGGSGGSLPYADSVKGRFTISRDNSKNTLYLQMNSLRAEDTAVYYCARYWPMADWGQGTLVTVSS VL: EIVLTQSPGTLSLSPGERATLSCRASQPISSSYLAWYQQKPGQAPRLLMYDASIRATGIPDRFSGSGSGTDFTLTISRLEPEDFAVYYCQQYQGWPLTFGQGTKVEIK and report it.
1.05e+07

Report measured kon; entry is C01_Rd4_6nM_C12 (antibody, V domains shown, IgG; also called PC1C12) VH: EVQLLESGGGLVQPGGSLRLSCAASGFTFSSYPMSWVRQAPGKGLEWVSAIGGSGGWSYYADSVKGRFTISRDNSKNTLYLQMNSLRAEDTAVYYCARYWPMDSWGQGTLVTVSS VL: EIVLTQSPGTLSLSPGERATLSCWLSQSVSSTYLAWYQQKPGQAPRLLIYDASSRAPGIPDRFSGSGSGTDFTLTISRLEPEDFAVYYCQQYSEWPLTFGQGTKVEIK
1.21e+07

Supply recorded kon for C01_Rd4_0.6nM_C06 (antibody, V domains shown, IgG) VH: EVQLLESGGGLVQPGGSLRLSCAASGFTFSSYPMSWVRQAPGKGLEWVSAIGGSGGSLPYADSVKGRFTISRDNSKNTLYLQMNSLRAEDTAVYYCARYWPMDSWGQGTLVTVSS VL: EIVLTQSPGTLSLSPGERATLSCRASEAVPSTYLAWYQQKPGQAPRLLIYDASSRAPGIPDRFSGSGSGTDFTLTISRLEPEDFAVYYCQQYSAFPLTFGQGTKVEIK here.
1.82e+07

Quote kon reported for C01_Rd4_6nM_C04 (antibody, V domains shown, IgG) VH: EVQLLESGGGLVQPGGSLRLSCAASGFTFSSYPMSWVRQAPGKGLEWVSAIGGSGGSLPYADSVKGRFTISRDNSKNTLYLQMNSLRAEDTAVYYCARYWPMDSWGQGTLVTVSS VL: EIVLTQSPGTLSLSPGERATLSCCSSQSVSSTYLAWYQQKPGQAPRLLIYDASSRAPGIPDRFSGSGSGTDFTLTISRLEPEDFAVYYCQQYSAFPLTFGQGTKVEIK please.
2.33e+07

Consider the binder C01_Rd4_6nM_C10 (antibody, V domains shown, IgG) VH: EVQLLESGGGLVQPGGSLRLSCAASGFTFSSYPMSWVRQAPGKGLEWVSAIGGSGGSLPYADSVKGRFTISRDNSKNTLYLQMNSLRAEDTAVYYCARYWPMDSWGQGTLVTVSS VL: EIVLTQSPGTLSLSPGERATLSCRASQSVSSVYLAWYQQKPGQAPRLLIYDASSRAPGIPDRFSGSGSGTDFTLTISRLEPEDFAVYYCQQYSTWPLTFGQGTKVEIK . State its measured kon.
1.31e+07
